A collection of compounds and their measured log10 of fluorescence lifetime
Experiment: solvent given as SMILES
Details: in Cc1ccccc1
Units before log transform: ns; reported quantity: fluorescence lifetime; transform: log10.

Answered examples (5):
smiles_structure=N#Cc1c(-n2c3ccccc3c3ccccc32)c(-n2c3ccc(-c4ccccc4)cc3c3cc(-c4ccccc4)ccc32)c(-n2c3ccccc3c3ccccc32)c(-n2c3ccc(-c4ccccc4)cc3c3cc(-c4ccccc4)ccc32)c1-n1c2ccccc2c2ccccc21 measured_number=0.76
smiles_structure=CC1(C)Nc2cc(Cl)ccc2-c2[nH]c3ccccc3c(=O)c21 measured_number=0.82
smiles_structure=Cc1cc(C)c(B(c2ccc(C#Cc3cc4ccc5cc(C#Cc6ccc(B(c7c(C)cc(C)cc7C)c7c(C)cc(C)cc7C)cc6)cc6ccc(c3)c4c56)cc2)c2c(C)cc(C)cc2C)c(C)c1 measured_number=1.76
smiles_structure=c1ccc(-c2ccc(-c3nc(-n4c5ccccc5c5ccc6c7ccccc7n(-c7ccccc7)c6c54)nc(-n4c5ccccc5c5ccc6c7ccccc7n(-c7ccccc7)c6c54)n3)cc2)cc1 measured_number=0.94
smiles_structure=C(=C\c1nc(/C=C/c2ccc(-n3c4ccccc4c4ccccc43)cc2)nc(/C=C/c2ccc(-n3c4ccccc4c4ccccc43)cc2)n1)/c1ccc(-n2c3ccccc3c3ccccc32)cc1 measured_number=0.59

What does the record list as log10 of fluorescence lifetime for "CC(C)(C)c1ccc2c(c1)c1cc(C(C)(C)C)ccc1n2-c1cc(N2c3ccccc3C(c3ccccc3)(c3ccccc3)c3ccccc32)cc(-n2c3ccc(C(C)(C)C)cc3c3cc(C(C)(C)C)ccc32)c1C#N" ?
1.15
